src = patent US12371454B2

Listing of recorded IC50 by entry.
# study target: Kras and SOS1 (biotin-tagged human Kras loaded with GDP, His-tagged human SOS1) (Homo sapiens, UniProt P01116, G12D)
# Construct: made in house; host or cells: E. coli (stated for Kras only)
# Sequence (P01116 1-188 isoform P01116-2 G12D): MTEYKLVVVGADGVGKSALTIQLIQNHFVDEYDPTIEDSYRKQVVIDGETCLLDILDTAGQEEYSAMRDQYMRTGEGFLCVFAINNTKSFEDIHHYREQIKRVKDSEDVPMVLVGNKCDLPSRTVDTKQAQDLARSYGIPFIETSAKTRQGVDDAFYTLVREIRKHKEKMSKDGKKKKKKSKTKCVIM
# test summary: Protein-protein interaction inhibition between Kras and SOS1 (KrasGl2D-SOS PPI) using AlphaScreen
# Format: binding
# study conditions: AlphaScreen; biotin-tagged human Kras loaded with GDP, His-tagged human SOS1; read-out: KRAS G12D-SOS PPI IC50
Positions of bridges follow the written chain, without caps; N, C: chain ends. Non-standard residues stand in square brackets, D forms with d. Residues, ends and D or L forms follow the SMILES beside them. *: point of attachment. hPhe(3-Cl-4-CF3) = N[C@@H](CCc1ccc(C(F)(F)F)c(Cl)c1)C(=O)O; NMePhe(4-CF3) = CN[C@@H](Cc1ccc(C(F)(F)F)cc1)C(=O)O; hPhe(4-CF3) = N[C@@H](CCc1ccc(C(F)(F)F)cc1)C(=O)O; 3Oxa8azabicyclo(3.2.1)octane = C1CC2COCC1N2*; Pip(4-oxo) = O=C1CCN[C@H](C(=O)O)C1; NMeCha = CN[C@@H](CC1CCCCC1)C(=O)O; NMeChg = CN[C@H](C(=O)O)C1CCCCC1; NMeI = CC[C@H](C)[C@H](NC)C(=O)O; dNMeF = CN[C@H](Cc1ccccc1)C(=O)O; NMeD = CN[C@@H](CC(=O)O)C(=O)O; NMeL = CN[C@@H](CC(C)C)C(=O)O; NMeA = CN[C@@H](C)C(=O)O; Piperidide = C1CCN(*)CC1; Ac5c = NC1(C(=O)O)CCCC1; Aze = O=C(O)[C@@H]1CCN1; Sar = CNCC(=O)O
Number in nM, nothing else.

Consider the following illustrative entries.
CC[C@H](C)[C@@H]1NC(=O)[C@H](CC(C)C)N(C)C(=O)C[C@@H](C(=O)N2CCCCC2)N(C)C(=O)[C@H](C2CCCCC2)N(C)C(=O)C2(CCCC2)NC(=O)[C@@H]2CC(=O)CCN2C(=O)[C@H](CCc2ccc(C(F)(F)F)c(Cl)c2)NC(=O)CN(C)C(=O)[C@H](CC2CCCCC2)N(C)C(=O)CN(C)C(=O)CN(C)C1=O [Compound 1089] ([NMeL]I[Sar][Sar][NMeCha][Sar][hPhe(3-Cl-4-CF3)][Pip(4-oxo)][Ac5c][NMeChg][NMeD]-Piperidide; lactam N-11) = 1.6
CC[C@H](C)[C@@H]1NC(=O)[C@H](C)N(C)C(=O)C[C@@H](C(=O)N2CCCCC2)N(C)C(=O)[C@H]([C@@H](C)CC)N(C)C(=O)C2(CCCC2)NC(=O)[C@@H](Cc2ccccc2)N(C)C(=O)[C@H](CCc2ccc(C(F)(F)F)c(Cl)c2)NC(=O)CN(C)C(=O)[C@H](Cc2ccc(C(F)(F)F)cc2)N(C)C(=O)[C@@H]2CCN2C(=O)[C@H](C)N(C)C1=O [Compound 1942] ([NMeA]I[NMeA][Aze][NMePhe(4-CF3)][Sar][hPhe(3-Cl-4-CF3)][dNMeF][Ac5c][NMeI][NMeD]-Piperidide; lactam N-11) = 290

Note: attention shifts to another entry.
Reported IC50 for CC[C@H](C)[C@@H]1NC(=O)[C@H](CC(C)C)N(C)C(=O)C[C@@H](C(=O)N2C3CCC2COC3)N(C)C(=O)[C@H](C2CCCCC2)N(C)C(=O)C2(CCCC2)NC(=O)[C@@H]2CCCN2C(=O)[C@H](CCc2ccc(C(F)(F)F)cc2)NC(=O)CN(C)C(=O)[C@H](CC2CCCCC2)N(C)C(=O)CN(C)C(=O)CN(C)C1=O [Compound 1940] ([NMeL]I[Sar][Sar][NMeCha][Sar][hPhe(4-CF3)]P[Ac5c][NMeChg][NMeD]-{3Oxa8azabicyclo(3.2.1)octane}; lactam N-11) was 1.6
